Below, each of the compounds is paired with its reported pIC50 value.
target: human FAAH (Homo sapiens, UniProt O00519); construct: expressed in transfected cells; host or cells: H4 cells (H4-FAAH, Geneticin-selected); crude membrane homogenates; test: FAAH activity in membrane homogenates of H4-FAAH cells, [3H]-anandamide hydrolysis; type: biochemical; details: H4-FAAH cell membranes, 10 μM anandamide, room temperature, one hour; read-out: IC50
Sequence (O00519 whole entry): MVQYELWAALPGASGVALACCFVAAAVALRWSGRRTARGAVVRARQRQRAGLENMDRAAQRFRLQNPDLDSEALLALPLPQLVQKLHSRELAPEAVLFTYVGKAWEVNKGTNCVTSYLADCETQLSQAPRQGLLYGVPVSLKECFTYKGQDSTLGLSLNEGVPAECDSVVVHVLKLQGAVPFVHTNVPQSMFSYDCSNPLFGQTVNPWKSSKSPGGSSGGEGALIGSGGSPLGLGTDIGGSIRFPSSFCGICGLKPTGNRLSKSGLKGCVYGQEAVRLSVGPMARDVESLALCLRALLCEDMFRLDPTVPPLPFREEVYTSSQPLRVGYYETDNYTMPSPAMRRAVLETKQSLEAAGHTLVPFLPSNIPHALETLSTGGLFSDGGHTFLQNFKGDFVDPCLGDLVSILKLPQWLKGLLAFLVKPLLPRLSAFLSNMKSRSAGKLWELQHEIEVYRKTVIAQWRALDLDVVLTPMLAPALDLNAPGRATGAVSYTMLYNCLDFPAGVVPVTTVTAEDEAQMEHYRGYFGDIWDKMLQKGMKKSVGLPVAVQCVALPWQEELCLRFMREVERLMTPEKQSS
pIC50: −log10 of the molar value.

Value of measured pIC50 for the entry CCCCOc1ccc(CNC(=O)Oc2ccccc2F)cc1 [Example 112] : > 8.00

Short answer for CCCCOc1cccc(NC(=O)O/N=C/c2cccnc2)c1 [Example 65] : pIC50 was 7.00 to 8.00

For reference, reported pIC50 for CCCCCCCCOc1ccc(NC(=O)O/N=C/c2ccc(F)cc2)cc1 [Example 46] stands at > 8.00

Form field pIC50, entry CCCCCCCOc1ccc(NC(=O)ON=C(C)C)cc1 [Example 26] : > 8.00

Quick note, pIC50 for O=C(Nc1ccc2[nH]ccc2c1)O/N=C/c1cccnc1 [Example 141] landed at < 6.30

// pIC50 value for O=C(Nc1ccc2[nH]ccc2c1)O/N=C/c1ccccc1 [Example 143] : < 6.30

Looking up CCCCOc1ccc(NC(=O)O/N=C/c2ccc(F)cc2)cc1 [Example 5] , I see its pIC50 listed as > 8.00

Form: compound = CCOc1ccc(NC(=O)O/N=C/c2cccnc2)cc1 [Example 15] ; pIC50 = 6.30 to 7.00

The compound listed as CCCCOc1ccc(NC(=O)OC)cc1 [Example 95] shows pIC50 equal to < 6.30

Query CCCCCCCCCCCCOc1ccc(NC(=O)Oc2ccccc2)cc1 [Example 105] yields pIC50 of > 8.00

---
GET /value?item= O=C(Nc1ccc(Oc2ccccn2)cc1)O/N=C/c1cccnc1 [Example 147] &field=pIC50 returns 6.30 to 7.00

pIC50 in this record for CCCCCCCCCCCOc1ccc(NC(=O)O/N=C/c2cccnc2)cc1 [Example 3] : > 8.00

Lab book: pIC50 of CCCCCCCOc1ccc(NC(=O)O/N=C/c2ccccc2)cc1 [Example 27] noted as > 8.00

Reported pIC50 ( CCCCOc1ccc(NC(=O)ON=C(C)C)cc1OC [Example 18] ) = < 6.30

----------
target: human FAAH (Homo sapiens); construct: expressed in transfected cells; host or cells: H4 cells (H4-FAAH, Geneticin-selected); crude membrane homogenates; test: FAAH activity in membrane homogenates of H4-FAAH cells, [3H]-anandamide hydrolysis; format: biochemical; settings: H4-FAAH cell membranes, 10 μM anandamide, room temperature, one hour; read-out: IC50
measurementType: IC50

Example results:
Measured IC50 of O=C(Nc1ccc(Oc2ccccc2)cc1)O/N=C/c1cccnc1 : < 10 nM

Entry under test: CCCCOc1ccc(C(CC)NC(=O)Oc2ccc3ccccc3c2)cc1 (stereo not drawn) . Its IC50 was 10 to 100 nM

Measured IC50 of CCCCOc1cccc(NC(=O)O/N=C/c2ccccc2)c1 : 10 to 100 nM

CCCCCCCCC(=O)Nc1ccc(NC(=O)O/N=C/c2ccccc2)cc1 has a reported IC50 of 10 to 100 nM

Item: CCCCCCCCCOc1ccc(NC(=O)O/N=C/c2ccc(F)c(F)c2)cc1 | IC50: < 10 nM

So, CCCCCCOc1ccc(NC(=O)Oc2ccccc2F)cc1 ? Its IC50 was > 500 nM

According to the records, this compound CCCCCCCCCOc1ccc(NC(=O)O/N=C/c2ccccc2)cc1 displays IC50 of < 10 nM

Noted for CCCCOc1ccc(C(CC)NC(=O)Oc2ccc(F)cc2F)cc1 (stereo not drawn) : its IC50 reads 10 to 100 nM

More entries:
Looking up CCCCOc1ccc(NC(=O)O/N=C/c2cccnc2)cc1OC , I found its IC50 recorded as > 500 nM

# IC50 of CCCCOc1ccc(CNC(=O)Oc2cccc(N(C)C)c2)cc1 = 10 to 100 nM

Looking up CCCCCCCCCOc1ccc(NC(=O)O/N=C/c2ccc(F)cc2)cc1 , I see its IC50 listed as < 10 nM

The compound CCCCCCOc1ccc(NC(=O)ON=C(C)C)cc1 showed IC50 equal to 10 to 100 nM

The recorded IC50 for CCCCCCOc1ccc(NC(=O)O/N=C/c2cccnc2)cc1 is < 10 nM

IC50 in this record for CCCCOc1ccc(NC(=O)Oc2ccc(F)c(F)c2)cc1 : > 500 nM
